Source of measurements: PubChem BioAssay

Exercise: state measured composite z-score for each of the compounds provided.
# TEST NAME: small-molecule binders of probe aLefty1, primary screen, biochemical, small-molecule microarray, 635/667 nm fluorescence (AID 1153);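 note: score merges spot fluorescence with signal-to-noise ratio from the scanned slide images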
# APPLIED CONDITIONS: higher = more signal
Numbers only.

Guide cases for composite z-score, answers given:
{"columns": ["COMPOUND STRUCTURE STRING", "MEASURED METRIC", "RECORDED NUMBER"],
 "data": [
  ["COc1ccc(C#Cc2ccc3c(c2)[C@]2(C(=O)N3)[C@H](c3ccccc3OCCO)N3[C@H](c4ccccc4)[C@H](c4ccccc4)OC(=O)[C@H]3[C@@H]2C(=O)NC[C@H](O)c2ccccc2)cc1", "composite z-score", 0.0147],
  ["COc1cc(Cc2cc3c(c(-c4ccccc4)n2)[Si](C(C)C)(C(C)C)OC3)cc(OC)c1OC", "composite z-score", 0.0299]
]}

Would you kindly look at the next entry?
Looking up "COC(=O)[C@]1(Cc2ccccc2N=[N+]=[N-])N=C(c2ccc(OCCCO)cc2)O[C@@H]1c1ccccc1CN=[N+]=[N-]" , I found its composite z-score recorded as -0.0012

----------
Answer each item with its documented composite z-score.
# TARGET DESC: Neurogenic locus notch homolog protein 3 (Homo sapiens)
# TEST NAME: NOTCH3 binders on small-molecule microarray, primary screen, biochemical, 635/667 nm fluorescence (AID 1096)
# APPLIED CONDITIONS: NOTCH3 binding, 635 nm fluorescence, higher = more signal
Give bare numbers.

Examples with answers:
{"columns": ["MOLECULE", "composite z-score"],
 "data": [
  ["CC(C)C(=C=CC[C@H](O)c1cccc(OCCO)c1)C[C@H](O)c1ccccn1", 0.403],
  ["O=C1NC(=O)C2C1C=CC(C(O)c1ccc(F)cc1)N2Nc1ccc(Cl)cc1Cl (stereo not drawn)", 0.14]
]}

Item: COC(=O)C1=CC(CCCO)=CC(c2ccc(CN3CCCC3)cc2)N(C)C=C1C(=O)OC (stereo not drawn) | composite z-score: 0.276

----------
# TEST NAME: compound binding in COS7 lysate, probe aLAP1, primary screen, cell lysate, small-molecule microarray (AID 1124);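 note: lysate comes from COS7 cells expressing LAP1 and is applied at 0.3 µg/mL; score merges spot fluorescence near 667 nm with signal-to-noise over triplicate slides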
# APPLIED CONDITIONS: probe aLAP1, fluorescence, higher = more signal
Label scheme for composite z-score: lower than 0.5 is No, 0.5 and above is Yes.

{"columns": ["COMPOUND STRUCTURE STRING", "LABEL CLASS"],
 "data": [
  ["COc1ccc(C#Cc2ccc3c(c2)[C@]2(C(=O)N3)[C@H](c3ccccc3OCCO)N3[C@H](c4ccccc4)[C@H](c4ccccc4)OC(=O)[C@H]3[C@@H]2C(=O)NC[C@H](O)c2ccccc2)cc1", "No"],
  ["C=C1C(=O)C=C2CN(C(=O)c3ccccc3)[C@@](Cc3ccc(F)cc3)(C(=O)OC)[C@@H]12", "Yes"],
  ["[N-]=[N+]=NCc1ccccc1C[C@@]1(C(N)=O)N=C(c2ccc(OCCCO)cc2)O[C@@H]1c1ccccc1N=[N+]=[N-]", "No"],
  ["Cc1ccc(S[C@]2(C(=O)NCCN3CCOCC3)CC(=O)N(C(C)C)[C@@H]2c2ccc(CO)cc2I)cc1", "Yes"],
  ["C=C(CC1([C@@H](NP(=O)(c2ccccc2)c2ccccc2)[C@H]2C[C@@H]2CCCC)CC1)c1cccc(OC)c1", "No"]
]}

Data request: Hi, just wondering whether "CCCCC=C[C@@H](NC(=O)C(C)(C)C)c1ccccc1" shows composite z-score of 0.5 or higher.
Data returned: Yes
